The origin of these recorded values is paper PMC4678411.

test: Chemical hydrolysis stability study at 40-70 °C with Arrhenius extrapolation; assay type: physicochemical; conditions: pH 7.4, calculated half-life (t1/2) of hydrolysis, 4 °C
OBSERVABLE: half-life (days)
Give bare numbers, in days.

Value lookup for half-life; key = CC(C)[C@]12O[C@H]1[C@@H]1O[C@]13[C@]1(O[C@H]1C[C@H]1C4=C(CC[C@@]13C)C(=O)OC4)[C@@H]2OCOP(=O)([O-])[O-].[Na+].[Na+]
4460

###

assay: Chemical hydrolysis stability study at 40-70 °C with Arrhenius extrapolation; format: physicochemical; settings: pH 7.4, calculated half-life (t1/2) of hydrolysis, 25 °C
OBSERVABLE: half-life (days)
Numbers only, in days.

Value lookup for half-life; key = CC(C)[C@]12O[C@H]1[C@@H]1O[C@]13[C@]1(O[C@H]1C[C@H]1C4=C(CC[C@@]13C)C(=O)OC4)[C@@H]2OCOP(=O)([O-])[O-].[Na+].[Na+] [Compound 4]
336

###

test: Aqueous solubility determination; assay type: physicochemical; settings: Tris buffer, pH 7.4
OBSERVABLE: solubility at 24 h (µg/mL)
Numbers only, in µg/mL.

Value lookup for solubility at 24 h; key = CC(C)[C@]12O[C@H]1[C@@H]1O[C@]13[C@]1(O[C@H]1C[C@H]1C4=C(CC[C@@]13C)C(=O)OC4)[C@@H]2O [triptolide, Triptolide, reference compound]
17
